Molecular target: T1, human VPAC2 receptor (human, UniProt P41587 24-438)
T1 sequence (looked up): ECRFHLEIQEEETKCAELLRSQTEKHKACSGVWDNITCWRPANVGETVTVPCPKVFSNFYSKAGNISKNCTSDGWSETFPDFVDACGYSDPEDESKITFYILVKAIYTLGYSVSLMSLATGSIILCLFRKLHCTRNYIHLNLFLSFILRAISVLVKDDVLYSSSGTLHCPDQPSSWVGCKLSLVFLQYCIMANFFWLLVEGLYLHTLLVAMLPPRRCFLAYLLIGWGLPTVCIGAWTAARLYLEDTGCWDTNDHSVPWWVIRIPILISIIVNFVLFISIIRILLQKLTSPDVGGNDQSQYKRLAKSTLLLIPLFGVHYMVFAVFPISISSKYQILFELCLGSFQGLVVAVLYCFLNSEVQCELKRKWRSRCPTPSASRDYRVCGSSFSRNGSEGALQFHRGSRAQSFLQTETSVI
Assay: cell-based or functional assay
*1 amine or outer side, *2 acyl side, *3 side chain or, on linkers, in order; H or OH if unused. [ ]: non-standard residue; d: D form. The star is where a group is joined. Tyr(OMe) = methoxy tyrosine, COc1ccc(C[C@H](N[*:1])C(=O)[*:2])cc1; WPEG40K = not defined here; Orn = NCCC[C@H](N)C(=O)O; Abu = CC[C@H](N)C(=O)O; Hexanoyl = CCCCCC(=O)*; Aib = CC(C)(N)C(=O)O
measured-attribute: Human VPAC2 Receptor: DiscoveRx (EC50; nM)
One number for each entry, in nM.

Example results:
- binder: "HSDAVFTEQYTXLRXQLAXXXYLQSIXCXGGPSSGAPPPS (C6-HSDAVFTEQY(OMe)TOrnLRAibQLAAbuAibOrnYLQSIOrnC(PEG40K)OrnGGPSSGAPPPS-NH2) [P539]"
  reported: 47.3
- binder: "HSDAVFTEQYTXLRXQLAXXXYLQXIXXGGPSSGAPPPCC (C6-HSDAVFTEQY(OMe)TOrnLRAibQLAAbuAibOrnY(OMe)LQAibIOrnOrnGGPSSGAPPPC(PEG20K)C(PEG20K)-NH2) [P574]"
  reported: 36.1
- binder: "HSDAVFTEQYTXLRXQLAXXXYLQSIXCXGGPSSGAPPPC (C6-HSDAVFTEQY(OMe)TOrnLRAibQLAAbuAibOrnYLQSIOrnC(PEG20K)OrnGGPSSGAPPPC(PEG20K)-NH2) [P555]"
  reported: 8.1

For each entry beneath this line, provide reported Human VPAC2 Receptor: DiscoveRx (EC50; nM).
1. HSDAVFTEQYTXLRXQLAXXXYLQSIXXCGGPSSGAPPPS (C6-HSDAVFTEQY(OMe)TOrnLRAibQLAAbuAibOrnYLQSIOrnOrnC(PEG40K)GGPSSGAPPPS-NH2) [P566]
2. HSDAVFTEQYTXLRXQLAXXXYLQSCXXGGPSSGAPPPS (C6-HSDAVFTEQY(OMe)TOrnLRAibQLAAbuAibOrnYLQSC(PEG40K)OrnOrnGGPSSGAPPPS-NH2) [P543]
3. HSDAVFTEQYTXLRXQVAAXXYLQSIXXCGGPSSGAPPPC (C6-HSDAVFTEQY(OMe)TOrnLRAibQVAAAibOrnYLQSIOrnOrnC(PEG20K)GGPSSGAPPPC(PEG20K)-NH2) [P562]
4. HSDAVFTEQYTXLRXQLAXXXYXQSIXXGGPSSGAPPPCC (C6-HSDAVFTEQY(OMe)TOrnLRAibQLAAbuAibOrnYAibQSIOrnOrnGGPSSGAPPPC(PEG30K)C(PEG30K)-NH2) [P602]
5. HSDAVFTEQYTXLRXQLAAXXYLQSIXXCGGPSSGAPPPS (C6-HSDAVFTEQY(OMe)TOrnLRAibQLAAAibOrnYLQSIOrnOrnC(PEG40K)GGPSSGAPPPS-NH2) [P560]
6. Hexanoyl-HSDAVFTEQ[Tyr(OMe)]T[Orn]LRK(WPEG40K)QLA[Abu][Aib][Orn]YLQ[Aib]I[Orn][Orn]GGPSSGAPPPS-NH2 (reading uncertain) [P557]
7. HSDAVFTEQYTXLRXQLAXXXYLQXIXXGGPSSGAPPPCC (C6-HSDAVFTEQY(OMe)TOrnLRAibQLAAbuAibOrnYLQAibIOrnOrnGGPSSGAPPPC(PEG30K)C(PEG30K)-NH2) [P570]

1. 7.8
2. 8.9
3. 24.2
4. 7.2
5. 11.3
6. 108
7. 4.5
